- Experimental target: T1, monkey C5-mmh (monkey, UniProt P01031 19-1676 (human entry), limits assumed)
- T1 construct: Recombinant monkey C5 with a C-terminal myc-myc-hexahistidine tag
- T1 chain: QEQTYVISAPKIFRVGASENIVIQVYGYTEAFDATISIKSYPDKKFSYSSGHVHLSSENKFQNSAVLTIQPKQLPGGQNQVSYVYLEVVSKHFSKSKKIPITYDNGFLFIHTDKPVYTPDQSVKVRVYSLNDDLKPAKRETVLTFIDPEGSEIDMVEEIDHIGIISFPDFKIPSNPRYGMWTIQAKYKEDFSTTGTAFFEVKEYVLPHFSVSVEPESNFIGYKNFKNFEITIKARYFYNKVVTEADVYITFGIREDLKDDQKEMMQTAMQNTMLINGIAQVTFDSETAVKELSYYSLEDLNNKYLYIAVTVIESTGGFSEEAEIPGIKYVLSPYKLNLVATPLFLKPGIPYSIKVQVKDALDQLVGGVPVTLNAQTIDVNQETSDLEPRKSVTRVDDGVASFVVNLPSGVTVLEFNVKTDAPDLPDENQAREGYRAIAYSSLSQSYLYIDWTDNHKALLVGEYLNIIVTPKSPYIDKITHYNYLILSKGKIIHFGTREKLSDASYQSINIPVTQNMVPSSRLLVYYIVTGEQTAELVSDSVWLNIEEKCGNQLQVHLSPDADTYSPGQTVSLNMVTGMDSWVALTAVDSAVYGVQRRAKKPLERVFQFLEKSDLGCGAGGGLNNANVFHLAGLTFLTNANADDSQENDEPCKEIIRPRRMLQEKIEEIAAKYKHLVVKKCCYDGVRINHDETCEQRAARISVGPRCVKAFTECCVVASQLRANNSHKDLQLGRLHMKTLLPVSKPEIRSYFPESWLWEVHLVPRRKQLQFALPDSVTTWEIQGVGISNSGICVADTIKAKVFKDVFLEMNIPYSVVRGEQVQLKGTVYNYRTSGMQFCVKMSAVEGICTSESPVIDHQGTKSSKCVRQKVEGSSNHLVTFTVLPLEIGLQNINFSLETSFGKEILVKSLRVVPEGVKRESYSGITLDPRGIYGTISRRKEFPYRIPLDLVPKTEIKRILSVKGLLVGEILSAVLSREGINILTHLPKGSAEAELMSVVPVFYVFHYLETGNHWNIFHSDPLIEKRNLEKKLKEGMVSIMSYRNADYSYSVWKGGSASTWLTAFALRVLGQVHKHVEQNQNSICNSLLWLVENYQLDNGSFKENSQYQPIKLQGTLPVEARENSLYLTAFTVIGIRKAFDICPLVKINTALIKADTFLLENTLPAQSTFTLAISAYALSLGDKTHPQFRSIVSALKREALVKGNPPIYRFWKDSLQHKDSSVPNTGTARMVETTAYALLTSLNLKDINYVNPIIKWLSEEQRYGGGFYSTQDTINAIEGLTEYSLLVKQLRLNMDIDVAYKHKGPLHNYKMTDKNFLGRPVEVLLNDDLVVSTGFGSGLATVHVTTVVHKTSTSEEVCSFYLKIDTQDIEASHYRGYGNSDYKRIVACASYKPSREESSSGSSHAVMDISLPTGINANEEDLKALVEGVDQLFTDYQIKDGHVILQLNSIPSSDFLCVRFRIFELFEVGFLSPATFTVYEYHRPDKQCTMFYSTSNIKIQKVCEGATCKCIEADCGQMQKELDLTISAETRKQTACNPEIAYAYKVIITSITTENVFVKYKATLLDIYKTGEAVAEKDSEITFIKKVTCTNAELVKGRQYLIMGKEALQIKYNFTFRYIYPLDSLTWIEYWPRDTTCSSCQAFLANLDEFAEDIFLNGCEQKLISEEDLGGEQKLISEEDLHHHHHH
- Experiment description: SPR, mAb captured via anti-hFc, 37C
100 nM monkey C5-mmh Bound (RU) under 80 RU gets Yes, anything at or over 80 RU gets No.

Solved entries:
{"Binder": "H4H12166P7 (antibody, human IgG4, V domains shown, Histidine-mutated CDR variant of H4H12166P; human IgG4 Fc with S108P) VH: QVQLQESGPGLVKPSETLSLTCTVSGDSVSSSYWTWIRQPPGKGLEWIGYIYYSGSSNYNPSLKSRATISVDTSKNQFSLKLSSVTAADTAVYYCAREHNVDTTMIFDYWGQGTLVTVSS VL: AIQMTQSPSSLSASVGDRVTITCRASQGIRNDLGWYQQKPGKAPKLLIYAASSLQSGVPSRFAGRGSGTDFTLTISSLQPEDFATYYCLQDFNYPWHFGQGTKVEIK", "Label value": "Yes"}
{"Binder": "H4H12166P6 (antibody, human IgG4, V domains shown, Histidine-mutated CDR variant of H4H12166P; human IgG4 Fc with S108P) VH: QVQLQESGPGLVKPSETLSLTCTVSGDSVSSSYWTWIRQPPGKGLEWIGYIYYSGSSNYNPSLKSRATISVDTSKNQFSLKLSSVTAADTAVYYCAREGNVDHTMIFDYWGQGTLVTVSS VL: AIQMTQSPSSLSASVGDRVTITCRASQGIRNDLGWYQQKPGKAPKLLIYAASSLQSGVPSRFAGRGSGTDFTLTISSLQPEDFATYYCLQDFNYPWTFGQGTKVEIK", "Label value": "No"}
{"Binder": "H4H12175P (antibody, human IgG4, V domains shown, Human IgG4 Fc with S108P hinge mutation (H4H)) VH: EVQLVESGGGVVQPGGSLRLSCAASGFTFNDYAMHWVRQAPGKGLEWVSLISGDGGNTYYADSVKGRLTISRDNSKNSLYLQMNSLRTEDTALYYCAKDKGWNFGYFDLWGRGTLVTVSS VL: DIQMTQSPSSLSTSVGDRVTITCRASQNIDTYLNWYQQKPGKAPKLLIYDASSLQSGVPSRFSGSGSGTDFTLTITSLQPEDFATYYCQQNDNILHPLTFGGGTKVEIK", "Label value": "Yes"}
{"Binder": "H4H12168P (antibody, human IgG4, V domains shown, Human IgG4 Fc with S108P hinge mutation (H4H)) VH: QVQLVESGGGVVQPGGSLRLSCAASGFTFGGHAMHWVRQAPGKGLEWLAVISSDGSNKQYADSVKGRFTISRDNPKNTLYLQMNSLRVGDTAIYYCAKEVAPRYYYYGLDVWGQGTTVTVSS VL: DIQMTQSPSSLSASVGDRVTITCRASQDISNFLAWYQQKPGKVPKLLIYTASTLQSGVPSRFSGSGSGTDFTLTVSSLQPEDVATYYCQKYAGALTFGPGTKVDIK", "Label value": "Yes"}
{"Binder": "H4H12169P (antibody, human IgG4, V domains shown, Human IgG4 Fc with S108P hinge mutation (H4H)) VH: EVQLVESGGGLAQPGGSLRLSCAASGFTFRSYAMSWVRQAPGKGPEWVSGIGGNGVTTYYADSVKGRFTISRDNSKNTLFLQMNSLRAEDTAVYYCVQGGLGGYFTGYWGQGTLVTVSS VL: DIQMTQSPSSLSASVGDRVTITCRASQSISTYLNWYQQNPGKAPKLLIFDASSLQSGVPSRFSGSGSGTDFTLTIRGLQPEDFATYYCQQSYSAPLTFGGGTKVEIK", "Label value": "Yes"}

Could you please tell me whether 100 nM monkey C5-mmh Bound (RU) recorded for H4H12167P (antibody, human IgG4, V domains shown, Human IgG4 Fc with S108P hinge mutation (H4H)) VH: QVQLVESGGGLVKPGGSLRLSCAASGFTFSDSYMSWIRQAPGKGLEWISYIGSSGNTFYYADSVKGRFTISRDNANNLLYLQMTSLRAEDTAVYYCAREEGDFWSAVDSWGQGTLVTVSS VL: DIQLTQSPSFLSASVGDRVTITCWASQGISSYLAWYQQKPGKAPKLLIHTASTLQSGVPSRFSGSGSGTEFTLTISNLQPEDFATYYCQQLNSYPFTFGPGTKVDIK is less than 80 RU?
No

Could you please tell me whether 100 nM monkey C5-mmh Bound (RU) recorded for H4H12166P2 (antibody, human IgG4, V domains shown, Histidine-mutated CDR variant of H4H12166P; human IgG4 Fc with S108P) VH: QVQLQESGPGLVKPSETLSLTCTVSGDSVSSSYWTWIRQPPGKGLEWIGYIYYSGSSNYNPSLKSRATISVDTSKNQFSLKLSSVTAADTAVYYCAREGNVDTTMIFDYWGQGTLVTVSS VL: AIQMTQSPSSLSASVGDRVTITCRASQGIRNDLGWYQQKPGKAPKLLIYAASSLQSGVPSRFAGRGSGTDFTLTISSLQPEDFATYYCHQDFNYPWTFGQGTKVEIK is less than 80 RU?
No

Could you please tell me whether 100 nM monkey C5-mmh Bound (RU) recorded for H4H12166P9 (antibody, human IgG4, V domains shown, Histidine-mutated CDR variant of H4H12166P; human IgG4 Fc with S108P) VH: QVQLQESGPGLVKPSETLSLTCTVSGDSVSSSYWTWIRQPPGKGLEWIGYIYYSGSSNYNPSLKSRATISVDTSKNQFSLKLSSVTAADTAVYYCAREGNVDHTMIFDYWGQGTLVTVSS VL: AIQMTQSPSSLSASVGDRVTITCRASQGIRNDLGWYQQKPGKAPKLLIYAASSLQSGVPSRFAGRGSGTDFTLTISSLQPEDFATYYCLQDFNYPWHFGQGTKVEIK is less than 80 RU?
Yes

Could you please tell me whether 100 nM monkey C5-mmh Bound (RU) recorded for H4H12166P8 (antibody, human IgG4, V domains shown, Histidine-mutated CDR variant of H4H12166P; human IgG4 Fc with S108P) VH: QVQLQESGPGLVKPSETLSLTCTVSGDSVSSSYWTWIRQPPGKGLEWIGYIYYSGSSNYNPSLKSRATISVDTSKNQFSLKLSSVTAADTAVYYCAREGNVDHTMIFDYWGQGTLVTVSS VL: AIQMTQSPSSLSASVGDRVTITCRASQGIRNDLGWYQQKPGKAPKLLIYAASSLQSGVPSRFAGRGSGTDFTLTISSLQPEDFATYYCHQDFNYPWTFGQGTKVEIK is less than 80 RU?
Yes

Could you please tell me whether 100 nM monkey C5-mmh Bound (RU) recorded for H4H12163P (antibody, human IgG4, V domains shown, Human IgG4 Fc with S108P hinge mutation (H4H)) VH: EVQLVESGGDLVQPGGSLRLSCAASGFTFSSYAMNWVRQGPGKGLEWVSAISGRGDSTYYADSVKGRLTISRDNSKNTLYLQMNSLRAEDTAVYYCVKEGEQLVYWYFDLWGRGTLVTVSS VL: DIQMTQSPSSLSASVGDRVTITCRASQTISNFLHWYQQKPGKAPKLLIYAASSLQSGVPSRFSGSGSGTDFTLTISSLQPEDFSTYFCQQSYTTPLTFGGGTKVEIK is less than 80 RU?
No
